test name: Tissue distribution of SDC-TRAPs in tumor-bearing mice (plasma, tumor, heart)
condition parameters: mouse, in vivo, tissue distribution of SDC-TRAP-0076; 48 h; read-out: Tumor/Plasma Ratio
measured metric: Kp
Form rule: numeric answer, no unit written next to it.

# lookup: Kp of CCNC(=O)c1nnc(-c2cc(C(C)C)c(O)cc2O)n1-c1ccc(CN2CCC(C(=O)N3CCC(C(=O)OC4(CC)C(=O)OCc5c4cc4n(c5=O)Cc5c-4nc4ccc(O)cc4c5CC)CC3)CC2)cc1 (stereo not shown) [SDC-TRAP-0076]
6.85

* * *

test name: Tissue distribution of SDC-TRAPs in tumor-bearing mice (plasma, tumor, heart)
condition parameters: mouse, in vivo, tissue distribution of SDC-TRAP-0076; […]; read-out: Tumor/Plasma Ratio
measured metric: Kp
Reply briefly: the number, and no unit.

Would you kindly share the measured Kp for CCNC(=O)c1nnc(-c2cc(C(C)C)c(O)cc2O)n1-c1ccc(CN2CCC(C(=O)N3CCC(C(=O)OC4(CC)C(=O)OCc5c4cc4n(c5=O)Cc5c-4nc4ccc(O)cc4c5CC)CC3)CC2)cc1 (stereo not shown) [SDC-TRAP-0076] ?
0.01
